# procedure summary: recombinant barcode read abundance after kanamycin selection (control-corrected) (log10(CPM+1)); higher = more efficient recombination; sequences stand for … in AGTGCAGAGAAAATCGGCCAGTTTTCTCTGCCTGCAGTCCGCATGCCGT…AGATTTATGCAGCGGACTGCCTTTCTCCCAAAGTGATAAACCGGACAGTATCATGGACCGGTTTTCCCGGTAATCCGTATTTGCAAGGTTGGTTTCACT; site = the 11-nt target
Listed next: entries and their corresponding recombinant barcode read abundance (log10).
Format: numeric value only, no unit, no commentary.

Worked cases, answers included:
{"sequence code": "CTCGCTCCTTGGGTTCTAACCTGTTGCTG (site AATAAGTCTAT)", "numeric value": 0.102}
{"sequence code": "GAATCCTCTTGGGTTCTAACCTGTTGCCT (site TAATCCTCTAG)", "numeric value": 0.483}
{"sequence code": "TAGTTCACTTGGGTTCTAACCTGTTGCCA (site TAGTTTACTTG)", "numeric value": 0.0834}
{"sequence code": "CTGATAACTTGGGTTCTAACCTGTTGCCT (site CTGATAACTAG)", "numeric value": 1.02}

Input TAGAACACTTGGGTTCTAACCTGTTGCTA (site TAGAACACTGA) . Output recombinant barcode read abundance (log10): 0.71

sequence CGTTAGACTTGGGTTCTAACCTGTTGCCT (site CGTCAGACTAG) , recombinant barcode read abundance (log10) observed: 0.267

Short answer for GAGTGGCCTTGGGTTCTAACCTGTTGCGT (site GAGTGGCCTAA) : recombinant barcode read abundance (log10) was 0.314

Recorded recombinant barcode read abundance (log10) (sequence AACAGTTCTTGGGTTCTAACCTGTTGCCT (site AACAGCTCTAG) ): 0.151

Quick note, recombinant barcode read abundance (log10) for GGAGTGACTTGGGTTCTAACCTGTTGCTA (site GGAGTGACTTA) landed at 1.61

###

# procedure summary: recombinant UMI read abundance after kanamycin selection (control-corrected) (log10(CPM+1)); higher = more efficient recombination; extreme values may be limits of the assay; sequences stand for … in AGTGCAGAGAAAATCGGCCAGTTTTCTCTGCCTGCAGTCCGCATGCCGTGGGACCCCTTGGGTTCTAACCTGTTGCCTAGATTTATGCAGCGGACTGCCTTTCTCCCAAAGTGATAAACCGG…AGGTTGGTTTCACT; site = the 11-nt donor
Kindly return true if reported recombinant UMI read abundance (log10) is no lower than 0.3; return false if it is lower.

{"sequence code": "TTAGTATCATGGACCGGTTTTCCCGGTAATCCGTATTTGAG (site TTAGTATCTCT)", "category": "true"}
{"sequence code": "GATCGTGCATGGACCGGTTTTCCCGGTAATCCGTATTTGGC (site GATCGTGCTGC)", "category": "true"}
{"sequence code": "GTGCTTGCATGGACCGGTTTTCCCGGTAATCCGTATTTGGT (site GTGCGTGCTAC)", "category": "false"}
{"sequence code": "TCCAACTCATGGACCGGTTTTCCCGGTAATCCGTATTTGCC (site TCCAAATCTGG)", "category": "false"}
{"sequence code": "TCAAGTCCATGGACCGGTTTTCCCGGTAATCCGTATTTGTA (site TAAAGTCCTTA)", "category": "true"}
{"sequence code": "GTAGGGACATGGACCGGTTTTCCCGGTAATCCGTATTTGAC (site GTAGGCACTGT)", "category": "true"}

[Q] Does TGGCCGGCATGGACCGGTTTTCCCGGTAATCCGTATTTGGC (site TGGCAGGCTGC) have a reported recombinant UMI read abundance (log10) of at least 0.3?
[A] false

[Q] Would you say ACAGTGTCATGGACCGGTTTTCCCGGTAATCCGTATTTGAA (site ACAGTGTCTTT) shows recombinant UMI read abundance (log10) at minimum 0.3?
[A] true

###

# procedure summary: recombinant barcode read abundance after kanamycin selection (control-corrected) (log10(CPM+1)); higher = more efficient recombination; sequences stand for … in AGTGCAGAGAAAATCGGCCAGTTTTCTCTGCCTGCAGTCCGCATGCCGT…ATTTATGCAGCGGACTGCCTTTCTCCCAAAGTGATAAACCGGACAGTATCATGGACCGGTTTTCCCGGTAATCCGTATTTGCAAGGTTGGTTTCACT; site = the 11-nt target
Hi, to clarify the labels: Fulfilled covers recombinant barcode read abundance (log10) from 0.7 upward, Not fulfilled covers anything below 0.7.

{"sequence code": "AAACATGGATGGGTTCTAACCTGTTGCCTTC [AAACATGCTAG_LTGcore_GA_RTGcore_GA] (site AAACATGCTAG) (LTG core: GA, RTG core: GA)", "category": "Not fulfilled"}
{"sequence code": "GGGCGTGCTTGGGTTCTAACCTGTTGCCTCA [GGGCGTGCTAG_LTGcore_CT_RTGcore_TG] (site GGGCGTGCTAG) (LTG core: CT, RTG core: TG)", "category": "Fulfilled"}
{"sequence code": "TTATAAAATTGGGTTCTAACCTGTTGCCTAG [TTATAAACTAG_LTGcore_AT_RTGcore_CT] (site TTATAAACTAG) (LTG core: AT, RTG core: CT)", "category": "Not fulfilled"}
{"sequence code": "GGGAGCCATTGGGTTCTAACCTGTTGCTGAT [GGGAGCCCTCA_LTGcore_AT_RTGcore_AT] (site GGGAGCCCTCA) (LTG core: AT, RTG core: AT)", "category": "Not fulfilled"}
{"sequence code": "AGGCGGTCTTGGGTTCTAACCTGTTGCTTGC [AGGCGGTCTAA_LTGcore_CT_RTGcore_GC] (site AGGCGGTCTAA) (LTG core: CT, RTG core: GC)", "category": "Fulfilled"}
{"sequence code": "TGATACCGCTGGGTTCTAACCTGTTGCGTAG [TGATACCCTAC_LTGcore_GC_RTGcore_CT] (site TGATACCCTAC) (LTG core: GC, RTG core: CT)", "category": "Not fulfilled"}
{"sequence code": "CGCGCCCGCTGGGTTCTAACCTGTTGCGGAG [CGCGCCCCTCC_LTGcore_GC_RTGcore_CT] (site CGCGCCCCTCC) (LTG core: GC, RTG core: CT)", "category": "Not fulfilled"}

[Q] State whether the measured recombinant barcode read abundance (log10) reaches 0.7, counting equality as reaching it, for GCGCGACCTTGGGTTCTAACCTGTTGCTTCA [GCGCGACCTAA_LTGcore_CT_RTGcore_TG] (site GCGCGACCTAA) (LTG core: CT, RTG core: TG)
[A] Not fulfilled

###

This listing pairs sequences with measured recombinant barcode read abundance (log10).
# procedure summary: recombinant barcode read abundance after kanamycin selection (control-corrected) (log10(CPM+1)); higher = more efficient recombination; sequences stand for … in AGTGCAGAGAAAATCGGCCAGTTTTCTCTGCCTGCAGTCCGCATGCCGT…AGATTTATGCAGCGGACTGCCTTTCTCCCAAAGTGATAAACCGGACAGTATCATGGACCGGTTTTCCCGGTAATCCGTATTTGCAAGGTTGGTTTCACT; site = the 11-nt target
Reply: number alone, nothing else.

Measured recombinant barcode read abundance (log10), CTAGGAGCTTGGGTTCTAACCTGTTGCTG (site CTAGGAGCTAA) : 0.19

The measured recombinant barcode read abundance (log10) associated with TTAGAGCCTTGGGTTCTAACCTGTTGCCT (site TTAGAGGCTAG) reads 0.173

Memo: GAGTGAGCTTGGGTTCTAACCTGTTGCAT (site GAGTGAGCTAT) , reported recombinant barcode read abundance (log10): 2.53

###

# procedure summary: recombinant barcode read abundance after kanamycin selection (control-corrected) (log10(CPM+1)); higher = more efficient recombination; sequences stand for … in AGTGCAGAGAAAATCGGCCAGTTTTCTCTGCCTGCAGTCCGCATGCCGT…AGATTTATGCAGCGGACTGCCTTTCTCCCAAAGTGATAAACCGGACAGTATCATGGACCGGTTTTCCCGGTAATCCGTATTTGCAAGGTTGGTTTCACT; site = the 11-nt target
quantity kind: recombinant barcode read abundance (log10)
Write no unit; give the number alone.

Study these solved cases before continuing.
{"sequence code": "ACGATTCCTTGGGTTCTAACCTGTTGCCT (site AGGATTCCTAG)", "numeric value": 0.101}
{"sequence code": "CAGTTTGCTTGGGTTCTAACCTGTTGCCT (site CAGTTAGCTAG)", "numeric value": 0.102}
{"sequence code": "CTAGTGACTTGGGTTCTAACCTGTTGCGT (site CTAGTGACTGC)", "numeric value": 0.0977}
{"sequence code": "TAATCGCCTTGGGTTCTAACCTGTTGCCT (site TAATCGGCTAG)", "numeric value": 0.102}

Let's switch to this sequence now.
# sequence ACGTTACCTTGGGTTCTAACCTGTTGCCT (site ACGTTACCTAG) ; its recombinant barcode read abundance (log10) = 0.501
